Experiment: Proton dissociation constants of the ligands (pH-potentiometry, UV-vis, 1H NMR titrations)
Type: physicochemical
Details: aqueous solution, pH-potentiometry; I = 0.2 M KNO3; T = 25.0 °C; read-out: pKa (OH)
I'd appreciate it if you could supply pKa values for the items below.
Answers are plain numbers.

> print(dat)
                   smiles.representation  measurement
1  O=C(O)[C@H]1CCCN1Cc1cc(Cl)c2cccnc2c1O         7.71

Attention now shifts to the item below.
**Query** Param item = "O=C(O)[C@H]1CCCCN1Cc1cc(Cl)c2cccnc2c1O" ; retrieve measured pKa.
**Result** 7.52

* * *

Experiment: Proton dissociation constants of the ligands (pH-potentiometry, UV-vis, 1H NMR titrations)
Assay type: physicochemical
Conditions: aqueous solution, UV-vis; I = 0.2 M KNO3; T = 25.0 °C; read-out: pKa (OH)
Please provide measured pKa for the entries that follow.
Numbers only.

> print(dat)
                                   compound  measurement
1  O=C(O)[C@H]1CCCCN1Cc1cc(Cl)c2cccnc2c1O [HQCl-D-hPro]         7.49

Now, please, on to the next compound.
**Query** Entry O=C(O)[C@H]1CCCN1Cc1cc(Cl)c2cccnc2c1O [HQCl-D-Pro] has what pKa?
**Result** 7.77

* * *

Test: Proton dissociation and H2O/Cl- exchange constants of the complexes (UV-vis, 1H NMR)
Assay type: physicochemical
Conditions: UV-vis, pH 7.4; T = 25.0 °C
Please provide measured logK′ (H2O/Cl−) conditional exchange constant for the entries that follow.
Numbers only.

Reference set (3 entries):
Compound	Measurement
Cc1c(C)c(C)[c-](C)c1C.O=C(O)[C@H]1CCCC[NH+]1Cc1cc(Cl)c2cccnc2c1[O-].[Cl-].[Cl-].[Rh+3] [RhCp*–HQCl-D-hPro, [RhCp*(HQCl-D-hPro)Cl]Cl]	1.79
Cc1ccc(C(C)C)cc1.O=C(O)[C@H]1CCC[NH+]1Cc1cc(Cl)c2cccnc2c1[O-].[Cl-].[Cl-].[Ru+2] [RuCym–HQCl-D-Pro, [RuCym(HQCl-D-Pro)Cl]Cl]	1.18
Cc1c(C)c(C)[c-](C)c1C.O=C(O)[C@H]1CCC[NH+]1Cc1cc(Cl)c2cccnc2c1[O-].[Cl-].[Cl-].[Rh+3] [RhCp*–HQCl-D-Pro, [RhCp*(HQCl-D-Pro)Cl]Cl]	1.72

**Query** Requested field: logK′ (H2O/Cl−) conditional exchange constant. Item: Cc1ccc(C(C)C)cc1.O=C(O)[C@H]1CCCC[NH+]1Cc1cc(Cl)c2cccnc2c1[O-].[Cl-].[Cl-].[Ru+2] [RuCym–HQCl-D-hPro, [RuCym(HQCl-D-hPro)Cl]Cl]
**Result** 1.28

* * *

Assay: Proton dissociation constants of the ligands (pH-potentiometry, UV-vis, 1H NMR titrations)
Type: physicochemical
Settings: aqueous solution, pH-potentiometry; I = 0.2 M KNO3; T = 25.0 °C; read-out: pKa (NhPro/ProH+)
Record form. Attribute: pKa. Fill in for each entry.

Take each entry in turn and give its pKa.
1. O=C(O)[C@H]1CCCN1Cc1cc(Cl)c2cccnc2c1O [HQCl-D-Pro]
2. O=C(O)[C@H]1CCCCN1Cc1cc(Cl)c2cccnc2c1O [HQCl-D-hPro]

**Result**
["> 11", "> 11"]

Source: paper PMC8570331
